Entry source: ChEMBL document CHEMBL1926577

Reported inhibition of growth at 10 µM is given for each of the following compounds.
# System: SNB-19
# experiment: Growth inhibition of human SNB19 cells at 10 uM after 48 hrs by coulter counter method
# Type: functional
# testContext: SNB-19, 48 h, read-out: GI

Examples with answers:
[[record]]
compound = "O=C1N=C2SC(c3ccccc3)=NN2C1=O"
valuereported = "< 10%"

[[record]]
compound = "NC1=CC(N)=NC2OC(c3ccc(Cl)cc3)=NN12 (stereo not given)"
valuereported = "< 10%"


Give inhibition of growth at 10 µM for NC1=CC(N)=NC2SC(c3ccc(Cl)cc3)=NN12 (stereo not given) < 10%

Given `O=C1N=C2OC(c3ccccc3)=NN2C1=O` , respond with its inhibition of growth at 10 µM. < 10%

Look up and state reported inhibition of growth at 10 µM for `O=C1CN2N=C(c3ccccc3)SC2=N1` 23.2%

----------
# Tested on: IGROV-1
# experiment: Growth inhibition of human IGROV1 cells at 10 uM after 48 hrs by coulter counter method
# Format: functional
# testContext: IGROV-1, 48 h, read-out: GI
Below, each of the compounds is paired with its reported inhibition of growth at 10 µM value.

For orientation, consider the following solved cases.
[[record]]
compound = "NC1=CC(N)=NC2OC(c3ccccc3)=NN12 (stereo not drawn)"
targetorsystem = "IGROV-1"
reportedendpoint = "inhibition of growth at 10 µM"
valuereported = "< 10%"

[[record]]
compound = "NC1=CC(N)=NC2SC(c3ccc(Cl)cc3)=NN12 (stereo not drawn)"
targetorsystem = "IGROV-1"
reportedendpoint = "inhibition of growth at 10 µM"
valuereported = "22.3%"


// below: inhibition of growth at 10 µM requested for another compound
Consider the compound `O=C1N=C2OC(c3ccccc3)=NN2C1=O` . State its measured inhibition of growth at 10 µM. < 10%

----------
# Test system: SNB-19
# experiment: Growth inhibition of human SNB19 cells at 10 uM after 48 hrs by coulter counter method
# Assay type: functional
# testContext: SNB-19, 48 h, read-out: GI
reportedEndpoint: inhibition of growth at 10 µM

[[record]]
molecule = "NC1=CC(N)=NC2OC(c3ccccc3)=NN12 (stereo not given)"
targetorsystem = "SNB-19"
valuereported = "< 10%"

[[record]]
molecule = "NC1=CC(N)=NC2SC(c3ccccc3)=NN12 (stereo not given)"
targetorsystem = "SNB-19"
valuereported = "< 10%"

[[record]]
molecule = "O=C1N=C2SC(c3ccc(Cl)cc3)=NN2C1=O"
targetorsystem = "SNB-19"
valuereported = "< 10%"

[[record]]
molecule = "O=C1CN2N=C(c3ccc(Cl)cc3)OC2=N1"
targetorsystem = "SNB-19"
valuereported = "< 10%"


Query molecule follows.
Consider the molecule `O=C1CN2N=C(c3ccc(Cl)cc3)SC2=N1` . State its measured inhibition of growth at 10 µM. 18.2%
